Test system: HT29 colon
Procedure Details: NCI tumour cell line growth inhibition, 48 h
Experimental Readout: TGI

Solved cases (5 shown):
# Molecule, Reading
measured = [
    ("CC[As](CC)SC[C@H](C)C(=O)N1CCC[C@H]1C(=O)O", "> 100 µM"),
    ("CC(C)(C)OC(=O)NC1CCCCC1NC(=O)C(=O)NC1CCCCC1NC(=O)OC(C)(C)C (configuration not stated)", "> 100 µM"),
    ("Cc1ccc(/C=N/Nc2cc(C)c3cccc(C)c3n2)s1", "13 µM"),
    ("C=CCn1c(N)c(C#N)c(C#N)c1-c1ccccc1", "> 100 µM"),
    ("C[C@H]1[C@H]2[C@H]3CC[C@@H]4[C@@]5(C)CC[C@H](O)C(C)(C)[C@@H]5CC[C@@]4(C)[C@]3(C)C[C@H](O)[C@@]2(C)C[C@H]2O[C@]21C", "30.2 µM"),
]

Could you report TGI for every entry in the following list?
1. O=C(/C=C/c1ccccc1)CCC1C(=O)c2ccccc2C1=O
2. COc1cccc(CC(C)=C(c2ccc(OCCN(C)C)cc2)c2ccc(OCCN(C)C)cc2)c1
3. COC(=O)C1=C(OC(=O)/C(=C/c2ccc(Cl)cc2)c2ccc(Cl)cc2)C(C(=O)OC)[C@@]2(O)[C@@H](C(=O)OC)[C@H](C)C[C@@H]1[C@@H]2C(=O)OC (some centres not stated)
4. COC(=O)C1=C(C(=O)OC)N(c2ccc(OC)cc2[N+](=O)[O-])C(c2ccc(C)cc2)=CC1c1ccc(OC)cc1OC (configuration not stated)

**A:**
> 100 µM
1.91 µM
> 100 µM
> 100 µM

Could you report TGI for every entry in the following list?
1. Nc1c(C(=O)O)nnc2ccc(Cl)cc12
2. [N-]=[N+]=NC1(Cc2ccccc2)C(=O)c2cccc3c2N(CCC3)C1=O (configuration not stated)
3. Nc1ccc([N+](=O)[O-])cc1N=C/C=C/c1ccccc1
4. CCCCCCNc1n[nH]c(=O)c2c1nnn2Cc1ccccc1
5. COc1cc(OC)c2nc(C)c(CCCl)c(Cl)c2c1
6. CC1(C)COC(C2(C)C(=O)C=C(c3ccccc3)c3ccccc32)=N1 (configuration not stated)
7. C(=NCCN1CCOCC1)=NC1CCCCC1
8. Cc1ccc(S(=O)(=O)c2[nH]cc(/C(=C\C3CCCCC3)[N+](=O)[O-])c2C2CCCCC2)cc1

**A:**
1. > 100 µM
2. > 100 µM
3. 67.1 µM
4. > 100 µM
5. > 100 µM
6. 99 µM
7. > 100 µM
8. > 100 µM

* * *

Tested on: T-47D breast
Procedure Details: NCI tumour cell line growth inhibition, 48 h
Experimental Readout: TGI (µM)
One number for each entry, in µM.

# Molecule Smiles, TGI / µM
data = [
    ("CO/N=C(\\C)c1ccc(Nc2nc3ccccc3c3occc23)cc1", 28.9),
]

Proceeding to the next compound to report its TGI.
**Q:** Return value of TGI for input NS(=O)(=O)c1ccc(/C=C/c2ccc(O)c(O)c2)cc1 , no commentary.
**A:** 53.1

* * *

Test system: HCT-15 colon
Procedure Details: NCI tumour cell line growth inhibition, 48 h
Experimental Readout: TGI (µM)
Numbers only, in µM.

Could you report TGI for every entry in the following list?
1. CC(C)C1=CC23CCC4C(C)(C(=O)O)CCCC4(C)C2CC1C1C(=O)N(c2ccc(Cc4ccc(N5C(=O)C6C7CC8C9(C)CCCC(C)(C(=O)O)C9CCC8(C=C7C(C)C)C6C5=O)cc4)cc2)C(=O)C13 (stereo not given)
2. O=C1Sc2cc3ccccc3cc2C(=O)Sc2ccc(Br)cc21

**A:**
1. 24.5
2. 7.71

* * *

System: KM12 colon
Procedure Details: NCI tumour cell line growth inhibition, 48 h
If the reported TGI equals or exceeds 20 µM, assign true. If not, assign false.

These recorded examples may help you get a feel for the data.
# Compound, Discrete Label
measured = [
    ("CC(=O)c1ccccc1NP(=O)(c1ccccc1)c1ccccc1", "true"),
    ("COc1cccc(CC(C)=C(c2ccc(OCCN(C)C)cc2)c2ccc(OCCN(C)C)cc2)c1", "false"),
    ("NC(CCCCCP(=O)(c1ccccc1)C1C=CC=CC1)C(=O)O (configuration not stated)", "true"),
]

**Q:** Dear colleague, could you confirm whether C=CCn1c(N)c(C#N)c(C#N)c1-c1ccccc1 has TGI at or above 20 µM?
**A:** true

**Q:** Dear colleague, could you confirm whether COC(=O)COc1ccccc1/C=C1\N=C(c2ccccc2)N(c2cc(C(F)(F)F)ccc2Cl)C1=O has TGI at or above 20 µM?
**A:** true

**Q:** Dear colleague, could you confirm whether O=C1CCC2(c3ccc(Cl)cc3)Nc3ncccc3N12 (configuration not stated) has TGI at or above 20 µM?
**A:** true

**Q:** Dear colleague, could you confirm whether COc1ccc(/C=C\[N+](=O)[O-])cc1OC has TGI at or above 20 µM?
**A:** false

**Q:** Dear colleague, could you confirm whether C=CCCON(C(=O)OC(C)(C)C)C(C)(C)C has TGI at or above 20 µM?
**A:** true

**Q:** Dear colleague, could you confirm whether COc1cc(Nc2ncccc2C(=O)NCc2cn(Cc3cccc(Oc4ccccc4)c3)nn2)cc(OC)c1 has TGI at or above 20 µM?
**A:** true

**Q:** Dear colleague, could you confirm whether Cc1cc(Cl)cc(OCCn2cc(F)cn2)c1-c1nc(N)nc2c1CN(C(=O)NCC(C)(F)F)C2 has TGI at or above 20 µM?
**A:** false

**Q:** Dear colleague, could you confirm whether N#Cc1c(NC(=O)NCc2ccccc2)sc2c1CCCCC2 has TGI at or above 20 µM?
**A:** true

**Q:** Dear colleague, could you confirm whether Brc1ccc2[nH]cc(-c3csc(-c4c[nH]c5ccccc45)n3)c2c1 has TGI at or above 20 µM?
**A:** false

**Q:** Dear colleague, could you confirm whether CCN(CC)CCCN1CCc2c([nH]c3ccccc23)C1c1cccnc1 (configuration not stated) has TGI at or above 20 µM?
**A:** true

**Q:** Dear colleague, could you confirm whether C/C=C(\C)C(=O)O[C@H]1C=CC(=O)O[C@H]1CCC(=O)[C@H](C)O has TGI at or above 20 µM?
**A:** true

**Q:** Dear colleague, could you confirm whether CCOC(=O)c1cnc2c(ccc3[nH]n(C)nc32)c1=O has TGI at or above 20 µM?
**A:** true

* * *

Tested on: SN12C renal
Procedure Details: NCI tumour cell line growth inhibition, 48 h
Would you mind telling me the reported TGI of each entry?

# Compound, TGI
records = [
    ("COc1ccccc1/C=N\\N/C(N)=N\\N=C\\c1ccccc1OC", "> 46.8 µM"),
]

Could you report TGI for every entry in the following list?
1. O=c1[nH]cnc2c1cnn2Cc1cn(CCCCO)nn1
2. c1ccc2cc(-c3cc4ccccc4s3)ccc2c1

**A:**
> 100 µM
> 100 µM

Could you report TGI for every entry in the following list?
1. CCCC(=O)NC(NC1CCCCC1)(C(=O)OCC)C(F)(F)F (stereo unspecified)
2. CC(C)NC(=O)OCc1c(COC(=O)NC(C)C)c(-c2cc[n+](COC(=O)C3CC3)cc2)n2c1CCC2
3. CN1CCN(C2CCN(C(=O)Nc3cc(Oc4ccc(NC(=O)C5(C(=O)Nc6ccc(F)cc6)CC5)c(F)c4)ccn3)CC2)CC1

**A:**
1: > 100 µM; 2: > 100 µM; 3: > 7.82 µM

* * *

Would you mind telling me the reported TGI of each entry?
Test system: PC-3 prostate
Procedure Details: NCI tumour cell line growth inhibition, 48 h

# Compound, TGI
measured = [
    ("O=C(O)COc1ccc2c(=O)c3sc4c(=O)c5ccccc5c(=O)c4c3c(=O)c2c1", "> 100 µM"),
    ("CC1(C)[C@@H](Cn2ccc(=O)[nH]c2=O)CC[C@@]1(C)CO", "> 100 µM"),
    ("Oc1ccc(Nc2ncnc3c2sc2ncccc23)cc1", "> 100 µM"),
    ("NC(=S)N/N=C/C(=O)O", "> 100 µM"),
    ("COc1cc(C2c3cc4c(cc3OC(N3CCCCC3)C2C)OCO4)cc(OC)c1O (stereo not given)", "22.2 µM"),
    ("COc1cc(-c2oc(=O)ccc2C#Cc2ccccn2)cc(OC)c1OC", "> 100 µM"),
    ("O=C1c2ccccc2C(=O)c2c(NCC(O)CO)ccc(NCC(O)CO)c21 (stereo not given)", "> 100 µM"),
    ("N#Cc1n[nH]n(-c2ccc(Br)cc2)c1=O", "> 100 µM"),
]

Could you report TGI for every entry in the following list?
1. CCOC1(OCC)C2C=CC1C(COS(=O)(=O)c1ccc(C)cc1)C2COS(=O)(=O)c1ccc(C)cc1 (stereo not given)
2. C=CCn1c(N)c(C#N)c(C#N)c1-c1ccccc1
3. CC(=O)c1ccccc1NP(=O)(c1ccccc1)c1ccccc1
4. NC(N)=N/N=C/c1c(-c2ccsc2)nc2sccn12
5. Fc1ccc2c(c1)nc1n2C(c2c(Cl)cccc2Cl)SC1 (stereo not given)
6. Cc1ccnc2[nH]c(-c3ccc4ccccc4c3)cc(=O)c12
7. COC(=O)COc1ccccc1/C=C1\N=C(c2ccccc2)N(c2cc(C(F)(F)F)ccc2Cl)C1=O

**A:**
74.6 µM
> 100 µM
> 100 µM
26 µM
28.3 µM
6.06 µM
> 100 µM
